Consider the following compounds; for each one, report its AUC of viability dose-response curve.
# System: SEM cells
# RUN DESCRIPTION: AUC of viability dose-response curve (% viability x log10 dose units); higher = less sensitive
# CONDITION PARAMETERS: RPMI 5 mM glucose + 10% FBS; 48 h
Reply briefly: the number, and no unit.

For the compound "C=CCNC1=C2C[C@@H](C)C[C@H](OC)[C@H](O)[C@@H](C)/C=C(\C)[C@H](OC(N)=O)[C@@H](OC)/C=C\C=C(/C)C(=O)NC(=CC1=O)C2=O" , what AUC of viability dose-response curve is on record?
285

I would be grateful if you could share the reported AUC of viability dose-response curve for "ClC1=CC(=CC=C1)N2CCN(CCCN3\N=C4\C=C/C=C\N4C3=O)CC2" .
446

# input compound: "CC(=O)N1CCN(c2ccc(OCc3nn(C)c(C)c3-c3cccc4c(CCCOc5cccc6ccccc56)c(C(=O)O)n(Cc5cccnc5)c34)cc2)CC1" ; wanted: its AUC of viability dose-response curve
440

Item "Cc1cccc(C)c1OCC(=O)N[C@@H](Cc1ccccc1)[C@@H](O)C[C@H](Cc1ccccc1)NC(=O)[C@H](C(C)C)N1CCCNC1=O" has what recorded AUC of viability dose-response curve?
435

All values here come from the supplement of paper PMC11451515.
